# Test system: L1210 leukemia ip in BDF1 mice, survival T/C
# TEST SUMMARY: NCI In Vivo Anticancer Drug Screen. Data for tumor model L1210 Leukemia (intraperitoneal) in B6D2F1 (BDF1) mice
# PARTICULARS: endpoint: mean survival time; dose: 400.0 mg/kg/injection; schedule: Q04DX003 (ip); vehicle: saline with Tween-80; higher = longer survival
Toxic doses and inconclusive results are not listed.
OBSERVABLE: T/C

| MOLECULE | EXPERIMENTAL SYSTEM | T/C |
| --- | --- | --- |
| CC(C)OC(=S)SCC(=O)O | L1210 leukemia ip in BDF1 mice, survival T/C | 93 % of control |
| Cc1cc(I)c(C)s1 | L1210 leukemia ip in BDF1 mice, survival T/C | 98 % of control |
| O=c1[nH]cc(Sc2ccccc2)c(=O)[nH]1 | L1210 leukemia ip in BDF1 mice, survival T/C | 96 % of control |
| CCOC(=O)C1=C(C)NC(C)=C(C(=O)OCC)C1c1ccc(Cl)cc1 | L1210 leukemia ip in BDF1 mice, survival T/C | 88 % of control |
| O=[N+]([O-])C1(CO)COC(c2ccccc2)OC1 (stereo unspecified) | L1210 leukemia ip in BDF1 mice, survival T/C | 95 % of control |
| CCOC(=O)CN(C(=O)OCc1ccccc1)N(C)C(=O)OCc1ccccc1 | L1210 leukemia ip in BDF1 mice, survival T/C | 101 % of control |
| CC(SC(C)c1ccccc1)c1ccccc1 (stereo unspecified) | L1210 leukemia ip in BDF1 mice, survival T/C | 97 % of control |
| Cc1cc(Cl)ccc1NC(=O)c1ccc([N+](=O)[O-])cc1 | L1210 leukemia ip in BDF1 mice, survival T/C | 92 % of control |
| O=C(O)Cn1c(=O)n(CC(=O)O)c2ccccc21 | L1210 leukemia ip in BDF1 mice, survival T/C | 98 % of control |
| O=C(c1ccccc1)c1cccnc1 | L1210 leukemia ip in BDF1 mice, survival T/C | 104 % of control |

Request: Would you kindly share the measured T/C for `CC(C)(C)c1cc(Cc2cc(C(C)(C)C)c(O)c(C(C)(C)C)c2)cc(C(C)(C)C)c1O` ?
Response: 104 % of control

Request: Would you kindly share the measured T/C for `COc1cc(N)c(C(F)(F)F)cc1OC` ?
Response: 104 % of control

Request: Would you kindly share the measured T/C for `CC(=O)Nc1ccc(SC(=O)c2ccc(C(Cl)(Cl)Cl)cc2)cc1` ?
Response: 93 % of control

Request: Would you kindly share the measured T/C for `CCCCCCCCC(=O)Nc1cccc(OC(=O)NC)c1` ?
Response: 90 % of control

---

# System: L1210 leukemia ip in BDF1 mice, survival T/C
# TEST SUMMARY: NCI In Vivo Anticancer Drug Screen. Data for tumor model L1210 Leukemia (intraperitoneal) in B6D2F1 (BDF1) mice
# PARTICULARS: endpoint: mean survival time; dose: 400.0 mg/kg/injection; schedule: Q04DX002 (ip); vehicle: Klucel (hydroxypropylcellulose) (HPC); higher = longer survival
Inconclusive results and toxic doses are left out.
Reported T/C by item:

| COMPOUND | EXPERIMENTAL SYSTEM | MEASURED VALUE |
| --- | --- | --- |
| Cc1ccc(S(=O)(=O)N/N=C2/CC(C)(C)CC(=O)C2(C)C)cc1 | L1210 leukemia ip in BDF1 mice, survival T/C | 102 % of control |
| COC(=O)c1ccc(C(=O)OC)o1 | L1210 leukemia ip in BDF1 mice, survival T/C | 106 % of control |
| CCCCCCCCSC(=S)S.[Fe] | L1210 leukemia ip in BDF1 mice, survival T/C | 91 % of control |

Request: Would you kindly share the measured T/C for `O=C(Nc1ccc(S(=O)(=O)F)cc1)/C(=C\c1ccc([N+](=O)[O-])cc1)c1cccc(Cl)c1` ?
Response: 105 % of control

Request: Would you kindly share the measured T/C for `NCCC1=NCCN1` ?
Response: 104 % of control

Request: Would you kindly share the measured T/C for COC1OC(CO)C(NC(N)=O)C1O (configuration not stated) ?
Response: 111 % of control

Request: Would you kindly share the measured T/C for OC1C/C=C/CCCCC1 (configuration not stated) ?
Response: 103 % of control

Request: Would you kindly share the measured T/C for `O=C(O)/C=C/SCc1ccccc1` ?
Response: 97 % of control

Request: Would you kindly share the measured T/C for `CCCCOP(=O)(/C=C/c1ccc([N+](=O)[O-])cc1)OCCCC` ?
Response: 108 % of control
